Entry source: patent US20260041744A1

- METHOD SUMMARY: Miglustat plasma pharmacokinetics in patients, incl. renal impairment
- Format: in vivo, human
- CONDITION CONTEXT: human, plasma, oral; 260 mg dose
VALUE KIND: AUC

Briefly, AUC measured for CCCCN1C[C@H](O)[C@@H](O)[C@H](O)[C@H]1CO [miglustat] : ~25000 ng·h/mL
